measuredTarget: ERK5 (Homo sapiens)
Construct: made in house
Sequence (Q13164 whole entry): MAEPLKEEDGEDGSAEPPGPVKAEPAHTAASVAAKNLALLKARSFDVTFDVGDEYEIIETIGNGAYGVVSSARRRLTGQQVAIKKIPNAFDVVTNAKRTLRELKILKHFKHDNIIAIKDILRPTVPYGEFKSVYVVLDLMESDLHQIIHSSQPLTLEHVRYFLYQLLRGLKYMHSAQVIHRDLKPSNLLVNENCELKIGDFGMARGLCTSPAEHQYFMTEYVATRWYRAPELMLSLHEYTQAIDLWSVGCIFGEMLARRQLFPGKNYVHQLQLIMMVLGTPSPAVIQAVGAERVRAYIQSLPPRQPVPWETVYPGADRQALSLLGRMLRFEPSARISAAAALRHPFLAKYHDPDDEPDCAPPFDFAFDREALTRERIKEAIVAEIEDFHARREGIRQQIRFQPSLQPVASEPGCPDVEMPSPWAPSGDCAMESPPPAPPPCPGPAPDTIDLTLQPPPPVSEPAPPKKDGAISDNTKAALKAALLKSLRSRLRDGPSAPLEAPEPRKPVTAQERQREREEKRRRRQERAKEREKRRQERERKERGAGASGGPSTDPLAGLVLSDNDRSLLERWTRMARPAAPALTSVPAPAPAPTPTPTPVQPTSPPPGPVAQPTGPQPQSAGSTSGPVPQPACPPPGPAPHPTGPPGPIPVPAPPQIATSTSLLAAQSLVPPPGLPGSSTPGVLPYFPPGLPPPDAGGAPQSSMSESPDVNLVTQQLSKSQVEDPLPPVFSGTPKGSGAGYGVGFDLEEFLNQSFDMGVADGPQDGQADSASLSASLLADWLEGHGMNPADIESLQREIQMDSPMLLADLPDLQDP
measurementDescription: ERK5 IMAP assay (fluorescence polarisation)
Type: biochemical
experimentalConditions: average (e.g. geometric mean) where more than one data point; read-out: ERK5 IC50
observationType: IC50 (nM)

>>> observedmeasurement("O=C(Nc1ccc(F)nc1)c1cc(C(=O)c2c(F)cccc2Cl)c[nH]1 [Example 152]")
1490
>>> observedmeasurement("Cc1cc(NC(=O)c2cc(C(=O)c3c(Cl)ccc(Cl)c3F)c[nH]2)no1 [Example 58]")
2480
>>> observedmeasurement("O=C(Nc1cnc(N2CCC(O)CC2)nc1)c1cc(C(=O)c2c(Cl)ccc(Cl)c2F)c[nH]1 [Example 29]")
537
>>> observedmeasurement("O=C(Nc1ccc(NCCN2CCCCC2)nc1)c1cc(C(=O)c2c(Cl)ccc(Cl)c2F)c[nH]1 [Example 264]")
11.1
>>> observedmeasurement("O=C(Nc1ccc(CN2CCC(O)CC2)nc1)c1cc(C(=O)c2c(Cl)ccc(Cl)c2F)c[nH]1 [Example 282]")
6.7
>>> observedmeasurement("CN1CCC(NC(=O)c2cc(C(=O)c3c(F)cccc3F)c[nH]2)CC1 [Example 129]")
1130
